Each record here notes measured LD50 at 168 h.
Procedure Text: Acute toxicity, LD50 in mice (method of Litchfield and Wilcoxon), intravenous route
Measurement Parameters: mouse, in vivo, read-out: LD50 and limits (p = 0.05)
Structures can show the parent of a compound that is named as a salt.
Parameter: LD50 at 168 h (mg/kg)

1) CCOc1cc2c(cc1OCC)C(Cc1ccc(OC(C)C)c(OC(C)C)c1)=NCC2 [Example 1, hydrochloride] : 19
2) CCOc1ccc(CC2=NCCc3cc(OC(C)C)c(OC(C)C)cc32)cc1OCC [Example 2, hydrochloride] : 8.2

---

Each record here notes measured LD50 at 168 h.
Procedure Text: Acute toxicity, LD50 in mice (method of Litchfield and Wilcoxon), intravenous route
Measurement Parameters: in vivo, mouse CD males, i.v., 0.40 ml/20 g, mortality noted 7 days after administration, limits p = 0.05 in brackets
Description: LD50 values in mice for several compounds of the invention were obtained by the method of Litchfield and Wilcoxon (J. Pharmacol. (1949), 96.99) after the administration of the test compound by intravenous route (i.v.) in the mouse (CD, males 18-24 g) in a volume of 0.40 ml/20 g of body weight. The mortality is noted 7 days after administration.
Counter-ions that a name gives are not always drawn.
Parameter: LD50 at 168 h (mg/kg)

1) CCOc1cc2c(cc1OCC)C(Cc1ccc(OC(C)C)c(OC(C)C)c1)NCC2 (stereo not shown) [Example 11, hydrochloride] : 22
2) CCOc1ccc(CC2NCCc3cc(OC(C)C)c(OC(C)C)cc32)cc1OCC.Cl (stereo not shown) : 19
3) CCCOc1ccc(CC2=NCCc3cc(OCC)c(OCC)cc32)cc1OCCC.Cl : 17.5
4) CCCOc1cc2c(cc1OCCC)C(Cc1ccc(OCC)c(OCC)c1)=NCC2.Cl : 13.5
